- tested-system: Rac GTPase-activating protein 1 (Homo sapiens, UniProt Q9H0H5)
- Sequence (Q9H0H5 whole entry): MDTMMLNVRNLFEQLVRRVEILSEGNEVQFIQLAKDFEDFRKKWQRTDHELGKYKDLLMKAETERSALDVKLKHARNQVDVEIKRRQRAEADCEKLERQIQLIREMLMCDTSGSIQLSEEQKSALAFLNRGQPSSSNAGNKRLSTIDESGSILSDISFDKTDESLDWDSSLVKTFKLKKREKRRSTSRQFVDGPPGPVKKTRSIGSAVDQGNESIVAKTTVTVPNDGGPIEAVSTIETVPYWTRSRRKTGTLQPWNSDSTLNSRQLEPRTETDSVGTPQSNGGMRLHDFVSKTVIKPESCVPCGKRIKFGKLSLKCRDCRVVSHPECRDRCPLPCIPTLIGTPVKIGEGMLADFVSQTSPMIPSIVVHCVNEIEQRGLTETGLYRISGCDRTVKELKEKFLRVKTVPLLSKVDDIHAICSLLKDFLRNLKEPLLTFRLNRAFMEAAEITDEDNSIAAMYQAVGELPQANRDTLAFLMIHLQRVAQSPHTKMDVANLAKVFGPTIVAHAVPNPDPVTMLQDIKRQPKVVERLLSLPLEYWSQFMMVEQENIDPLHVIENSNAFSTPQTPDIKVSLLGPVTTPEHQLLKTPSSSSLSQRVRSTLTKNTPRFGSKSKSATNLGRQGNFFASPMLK
- test-method-notes: MgcRacGAP GTPase-activating activity inhibitors, confirmation, biochemical, ADP Hunter fluorescence, primary and confirmatory (AID 624330)
- Assay type: functional
Activity calls are given as the source filed them. How the calls were made is not given here.
Known IC50 of a selection of molecules

Solved entries (count: 10):
O=C(CNC(=O)c1cccnc1)N/N=C/c1ccc(O)cc1O    97.4 µM (active)
COc1ccccc1Nc1nnc(S)s1    57.1 µM (active)
CC(C)C1=Nc2cccc3cccc(c23)N1    26.3 µM (active)
CCN(CC)CCC(=O)N1C/C(=C/c2ccccc2)C(=O)/C(=C\c2ccccc2)C1    111 µM (active)
CC(C)(C)N=C(S)Nc1ccc(Nc2ccccc2)cc1    103 µM (active)
Nc1ccc2c(c1)Cc1cc(N)c(Br)cc1-2    7.57 µM (active)
O=C(Oc1ccc2c(c1)OCO2)c1ccc(Br)c(S(=O)(=O)N2CCOCC2)c1    76.1 µM (active)
CC(C)(C)c1cc(C(=O)N/N=C/c2ccc(O)cc2)n(-c2ccccc2)n1    122 µM (active)
CCOC(=O)c1c(C)n(-c2ccc(C)cc2)c2ccc(OCC(O)CNCC3CCCO3)cc12 (stereo unspecified)    131 µM (active)
CCN(CC)c1ccc(S(=O)(=O)N2CCOCC2)cc1NC(=O)CN1CCN(Cc2ccccc2)CC1    84.5 µM (active)

Q. Any idea what its IC50 is? The molecule is COc1cc(/C=C/CN2CCN(CCC(C)C)C(CCO)C2)ccc1O (stereo unspecified)
A. 101 µM (active)

Q. Any idea what its IC50 is? The molecule is `COc1ccc2nc(C)cc(SCC(=O)N/N=C/c3ccc(O)c(O)c3)c2c1`
A. 23.9 µM (active)
